# pKd listing for each entry below
Target: T1, Human CD73 on cells (MDA-MB-231, Jurkat CD73 knock-in, NCI-H322) (human, UniProt P21589 27-549)
T1 construct: GPI-anchored native protein; also called native human CD73
T1 sequence: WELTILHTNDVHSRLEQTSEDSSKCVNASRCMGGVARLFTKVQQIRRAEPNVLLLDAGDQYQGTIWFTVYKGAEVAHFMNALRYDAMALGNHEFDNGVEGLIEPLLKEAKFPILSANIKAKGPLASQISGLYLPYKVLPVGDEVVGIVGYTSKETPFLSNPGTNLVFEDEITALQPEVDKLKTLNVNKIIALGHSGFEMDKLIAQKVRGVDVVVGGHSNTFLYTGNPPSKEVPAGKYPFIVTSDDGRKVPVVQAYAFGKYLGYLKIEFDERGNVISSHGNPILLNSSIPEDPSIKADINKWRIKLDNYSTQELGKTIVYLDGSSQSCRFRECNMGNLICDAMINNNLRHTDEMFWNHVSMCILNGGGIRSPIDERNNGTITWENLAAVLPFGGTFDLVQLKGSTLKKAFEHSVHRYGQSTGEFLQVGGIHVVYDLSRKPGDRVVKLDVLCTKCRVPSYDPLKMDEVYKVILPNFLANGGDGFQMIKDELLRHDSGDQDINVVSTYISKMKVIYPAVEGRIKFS
Assay: flow cytometry on cells
pKd: −log10 of the molar value.
test_readout: pKd

- binder: "G10 (IgG1-TM) (antibody, V domains shown, IgG1-TM format; also called clone 10 G10) VH: EVQLLESGGGLVQPGGSLRLSCAASGFTFSSYAYSWVRQAPGKGLEWVSAISGSWGRTYYADSVKGRFTISRDNSKNTLYLQMNSLRAEDTAVYYCARLGYSTIDLWGRGTLVTVSS VL: QSVLTQPPSASGTPGQRVTISCSGSLSNIGRNDVNWYQQLPGTAPKLLIYLNNQRLGGVPDRFSGSKSGTSASLAISGLQSEDEADYYCATWDDSLKGWLFGGGTKLTVL"
  test_readout: "pKd"
  number: 9.45
- binder: "73combo2 (C2+GRVE+HPT) (antibody, V domains shown, IgG1-TM format; also called clone 10 combo2) VH: EVQLLESGGGLVQPGGSLRLSCAASGFTFSSYAYSWVRQAPGKGLEWVSLIWGSWGSTYYADSVKGRFTISRDNSKNTLYLQMNSLRAEDTAVYYCARLGYGRVDEWGRGTLVTVSS VL: QSVLTQPPSASGTPGQRVTISCSGSLSNIGRNPVNWYQQLPGTAPKLLIYLDNLRLGGVPDRFSGSKSGTSASLAISGLQSEDEADYYCATWDDSHPGWTFGGGTKLTVL"
  test_readout: "pKd"
  number: 9.78
- binder: "73combo5 (G10+GRVE+HPT) (antibody, V domains shown, IgG1-TM format; also called clone 10 combo5) VH: EVQLLESGGGLVQPGGSLRLSCAASGFTFSSYAYSWVRQAPGKGLEWVSAISGSWGRTYYADSVKGRFTISRDNSKNTLYLQMNSLRAEDTAVYYCARLGYGRVDEWGRGTLVTVSS VL: QSVLTQPPSASGTPGQRVTISCSGSLSNIGRNDVNWYQQLPGTAPKLLIYLNNQRLGGVPDRFSGSKSGTSASLAISGLQSEDEADYYCATWDDSHPGWTFGGGTKLTVL"
  test_readout: "pKd"
  number: 9.77
- binder: "CD730002 2C5 (antibody, V domains shown, IgG1-TM format; also called clone 2C5 antibody) VH: EVQLLESGGGLVQPGGSLRLSCAASGFTFSSYAMSWVRQAPGKGLEWVSAISGSGGSTYYADSVKRRFTISRDNSKNTLYLQMNSLRAEDTAVYYCARDKGYYWYMDVWGQGTMVTVSS VL: QSVLTQPPSVSVSPGQTASITCSGDKVGDKYASWYQQKPGQSPVLVIYEDTKRLSGIPERFSGSNSGNTATLTISGTQAMDEADYYCQAWDTSFWVFGGGTKLTVL"
  test_readout: "pKd"
  number: 10.08
- binder: "C2 (IgG1-TM) (antibody, V domains shown, IgG1-TM format; also called clone 10 C2) VH: EVQLLESGGGLVQPGGSLRLSCAASGFTFSSYAYSWVRQAPGKGLEWVSLIWGSWGSTYYADSVKGRFTISRDNSKNTLYLQMNSLRAEDTAVYYCARLGYSTIDMWGRGTLVTVSS VL: QSVLTQPPSASGTPGQRVTISCSGSLSNIGRNPVNWYQQLPGTAPKLLIYLDNLRLGGVPDRFSGSKSGTSASLAISGLQSEDEADYYCATWDDSLKGWLFGGGTKLTVL"
  test_readout: "pKd"
  number: 9.80
